In this section, each of the binders is paired with its reported Kd.
# Study target: T1, cynomolgus NKp46 (cynomolgus monkey, UniProt Q95JB9 22-306)
# T1 construct: also called cyno NKp46; cynomolgus monkey NKp46
# T1 sequence (Q95JB9 22-306 limits assumed): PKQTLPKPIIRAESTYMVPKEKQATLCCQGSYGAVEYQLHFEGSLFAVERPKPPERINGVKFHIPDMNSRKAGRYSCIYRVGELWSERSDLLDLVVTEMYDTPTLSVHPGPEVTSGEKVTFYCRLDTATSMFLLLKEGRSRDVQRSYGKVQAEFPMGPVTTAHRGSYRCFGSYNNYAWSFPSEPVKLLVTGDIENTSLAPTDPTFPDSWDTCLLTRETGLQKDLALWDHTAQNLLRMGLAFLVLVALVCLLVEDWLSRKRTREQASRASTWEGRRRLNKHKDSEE
# Assay text: flow cytometry, HEK293F cells transfected with cyno NKp46

Binder	Kd, nM
NKp46-hz5D7v2-Fc* (Fc fusion, VHH-Fc fusion with an IgG1 Fc lacking a hinge (Fc*); also called NKp46-bz5D7v2-Fc*) EVQLVESGGGEVQPGGSLRLSCAASGRTFASAAMGWFRQAPGKEREFVAAISRSDDTYYAESVKGRFTISRDNAKNTLYLQMSSLRAEDTAVYYCAAVVPTYGNNIYVHSAAYNYWGQGTLVTVKPGGGGPSVFLFPPKPKDTLMISRTPEVTCVVVDVSHEDPEVKFNWYVDGVEVHNAKTKPREEQYNSTYRVVSVLTVLHQDWLNGKEYKCKVSNKALPAPIEKTISKAKGQPREPQVYTLPPSRDELTKNQVSLTCLVKGFYPSDIAVEWESNGQPENNYKTTPPVLDSDGSFFLYSKLTVDKSRWQQGNVFSCSVMHEALHNHYTQKSLSLSPG	0.902
NKp46-hz5D7v4-Fc* (Fc fusion, VHH-Fc fusion with an IgG1 Fc lacking a hinge (Fc*)) EVQLVESGGGEVQPGGSLRLSCAASGRTFASAAMGWFRQAPGKEREFVAAISRSDDTYYADSVKGRFTISRDNAKNTVYLQMSSLRAEDTAVYYCAAVVPTYGNNIYVHSAAYNYWGQGTLVTVKPGGGGPSVFLFPPKPKDTLMISRTPEVTCVVVDVSHEDPEVKFNWYVDGVEVHNAKTKPREEQYNSTYRVVSVLTVLHQDWLNGKEYKCKVSNKALPAPIEKTISKAKGQPREPQVYTLPPSRDELTKNQVSLTCLVKGFYPSDIAVEWESNGQPENNYKTTPPVLDSDGSFFLYSKLTVDKSRWQQGNVFSCSVMHEALHNHYTQKSLSLSPG	0.446
